# assay.notes: Cytotoxicity counterscreen for inhibitors of SARS-CoV-2 cell entry (AID 1645845); note: nearly all actives have a fitted effect of over 50% in size
# test.parameters: cell viability (SARS-CoV-2 entry assay cells); series mostly up to 57.1 µM
Inconclusive results are not listed. Active and inactive are the calls of the source. Calls come from the whole dose curve.
Response enum: active, inactive

Input: In this assay, the call recorded for N[C@H](Cc1cnc[nH]1)C(=O)O was what?
Output: inactive

Input: In this assay, the call recorded for C=C1CCN([C@H](C)[C@](O)(Cn2cncn2)c2ccc(F)cc2F)CC1 was what?
Output: inactive

Input: In this assay, the call recorded for Cn1cc(-c2ccc(-c3cncc(Cl)c3N3CCC4(CCNC4=O)CC3)cc2)cn1 was what?
Output: inactive

Input: In this assay, the call recorded for CCOC(=O)Cc1ccc(-c2ccccc2)cc1 was what?
Output: inactive

Input: In this assay, the call recorded for COc1cc2ncnc(Nc3cccc(Cl)c3F)c2cc1OC(=O)N1CCN(C)C[C@H]1C was what?
Output: inactive

Input: In this assay, the call recorded for C=C1CC[C@H](O)CC1=C/C=C1\CCC[C@]2(C)[C@@H]([C@H](C)CCCC(C)(C)O)CC[C@@H]12 was what?
Output: inactive

Input: In this assay, the call recorded for CN(CC(O)CO)C(=O)c1c(I)c(NC(=O)C(CO)CO)c(I)c(C(=O)N(C)CC(O)CO)c1I (stereo not drawn) was what?
Output: inactive

Input: In this assay, the call recorded for CNCc1ccc(-c2cc(-c3nc(-c4ccc(S(=O)(=O)C(C)C)cc4)cnc3N)on2)cc1 was what?
Output: inactive

Input: In this assay, the call recorded for C=Cc1ccccc1 was what?
Output: inactive

Input: In this assay, the call recorded for CO[C@H]1O[C@@H]2O[C@@]3(C)CC[C@H]4[C@H](C)CC[C@@H]([C@@H]1C)[C@@]24OO3 was what?
Output: inactive

Input: In this assay, the call recorded for Cc1ccc([C@@H]2O[C@H](CO)[C@@H](O)[C@H](O)[C@H]2O)cc1Cc1ccc(-c2ccc(F)cc2)s1 was what?
Output: inactive

Input: In this assay, the call recorded for CN(CCOc1ccc(-c2ccc3c(c2)OCO3)cc1C(C)(C)C)CC(=O)O was what?
Output: inactive

Input: In this assay, the call recorded for COc1cc(N2CCC(N)CC2)ccc1Nc1ncc(Cl)c(-c2c[nH]c3ccccc23)n1 was what?
Output: active

Input: In this assay, the call recorded for Nc1cc(COc2c(Cl)cc(C[C@H](N)C(=O)O)cc2Cl)c2oc(-c3ccccc3)nc2c1 was what?
Output: inactive

Input: In this assay, the call recorded for COc1ccc([C@@H]2CC(=O)c3c(O)cc(O[C@@H]4O[C@H](CO[C@@H]5O[C@@H](C)[C@H](O)[C@@H](O)[C@H]5O)[C@@H](O)[C@H](O)[C@H]4O)cc3O2)cc1O was what?
Output: inactive

Input: In this assay, the call recorded for CC[C@@H](Oc1cccc(CN(CCCOc2ccc(OC)cc2)c2nc3ccccc3o2)c1)C(=O)O was what?
Output: inactive

Input: In this assay, the call recorded for CC[C@H]1OC(=O)[C@H](C)[C@@H](O[C@H]2C[C@@](C)(OC)[C@@H](O)[C@H](C)O2)[C@H](C)[C@@H](O[C@@H]2O[C@H](C)C[C@H](N(C)C)[C@H]2O)[C@](C)(OC)C[C@@H](C)C(=O)[C@H](C)[C@@H](O)[C@]1(C)O was what?
Output: inactive

Input: In this assay, the call recorded for [Mn].[O]=[Mn][OH].[O]=[Mn][OH] was what?
Output: inactive

The origin of these recorded values is PubChem BioAssay (NCATS).
